Hello, the source for this data is patent US20060264369, in case you need it.

# test target: T1, von Willebrand factor A1 domain (rabbit) (Oryctolagus cuniculus)
# T1 chain: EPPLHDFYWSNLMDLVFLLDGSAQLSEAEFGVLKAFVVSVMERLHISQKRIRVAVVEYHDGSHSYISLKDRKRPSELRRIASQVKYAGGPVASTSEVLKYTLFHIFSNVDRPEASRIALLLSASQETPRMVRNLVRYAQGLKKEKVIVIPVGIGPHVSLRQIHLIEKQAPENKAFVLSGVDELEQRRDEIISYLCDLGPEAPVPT
# protocol notes: filter; 20 nM protein
# recorded conditions: tags: 6xHis
binding signal values by entry
readout label: binding signal

[[record]]
binder = "AMX237.C1 (ssDNA) DNA: CTACCTACGATCTGACTAGCGGAATGAGGATGCTGGTGGATTGCTCAGGTCTGCTGGCTGCTTACTCTCATGTAGTTCC"
readout_label = "binding signal"
experimental_result = "3.47 ratio to no protein"

[[record]]
binder = "AMX236.E2 (ssDNA) DNA: CTACCTACGATCTGACTAGCGGAATGAGTATGCTGATGGATTGCTCAGGTCTGCTGGCTGCTTACTCTCATGTAGTTCC"
readout_label = "binding signal"
experimental_result = "3.59 ratio to no protein"

[[record]]
binder = "AMX237.B12 (ssDNA) DNA: CTACCTACGATCTGACTAGCGGAATGAGAATGCAGGTGGATTGCTCAGGTCTGCTGGCTGCTTACTCTCATGTAGTTCC"
readout_label = "binding signal"
experimental_result = "4.67 ratio to no protein"

[[record]]
binder = "AMX238.F6 (ssDNA) DNA: CTACCTACGATCTGACTAGCGGAATGAGTATGCTGGTGGATTGCTCAGGTCTGCTGGCTGCTTACTCTCATGTAGTTCC"
readout_label = "binding signal"
experimental_result = "5.36 ratio to no protein"

[[record]]
binder = "AMX236.C1 (ssDNA) DNA: CTACCTACGATCTGACTAGCGGAATGAGAATGTTGGTGGATTGCTCAGGTCTGCTGGCTGCTTACTCTCATGTAGTTCC"
readout_label = "binding signal"
experimental_result = "3.28 ratio to no protein"

[[record]]
binder = "AMX238.F5 (ssDNA) DNA: CTACCTACGATCTGACTAGCGGAATGAGAAGCTGGTGGATTGCTCAGGTCTGCTGGCTGCTTACTCTCATGTAGTTCC"
readout_label = "binding signal"
experimental_result = "4.4 ratio to no protein"

[[record]]
binder = "AMX238.A6 (ssDNA) DNA: CTACCTACGATCTGACTAGCGGAATGAGAATGCAGATGGATTGCTCAGGTCTGCTGGCTGCTTACTCTCATGTAGTTCC"
readout_label = "binding signal"
experimental_result = "3.47 ratio to no protein"

[[record]]
binder = "AMX237.E10 (ssDNA) DNA: CTACCTACGATCTGACTAGCGGAATGAGAATGCTGGTGGATTGCTCAGGTCTGCTGGCTGCTTACTCTCATGTAGTTCC"
readout_label = "binding signal"
experimental_result = "6.04 ratio to no protein"

[[record]]
binder = "AMX238.A11 (ssDNA) DNA: CTACCTACGATCTGACTAGCGGAATGAGAGTGTTGGTGGATTGCTCAGGTCTGCTGGCTGCTTACTCTCATGTAGTTCC"
readout_label = "binding signal"
experimental_result = "4.54 ratio to no protein"

[[record]]
binder = "AMX236.C6 (ssDNA) DNA: CTACCTACGATCTGACTAGCGGAATGAGAGTGCTGGTGGATTGCTCAGGTCTGCTGGCTGCTTACTCTCATGTAGTTCC"
readout_label = "binding signal"
experimental_result = "5.77 ratio to no protein"

